The measurements presented in this section are drawn from paper PMC10223884.

- target.desc: Gal-4NL (Homo sapiens)
- Construct: designated as Gal-4NL (aa 1-160), and Gal-4CL (aa 169-323), respectively
- Sequence (P56470 1-160): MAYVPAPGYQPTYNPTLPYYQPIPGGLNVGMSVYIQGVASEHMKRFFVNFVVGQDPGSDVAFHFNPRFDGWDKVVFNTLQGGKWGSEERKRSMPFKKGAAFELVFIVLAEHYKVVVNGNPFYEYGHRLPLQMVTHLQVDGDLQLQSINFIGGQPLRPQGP
- method.summary: competitive ELISA, inhibition of binding of Gal-4NL subunit to immobilized ASF
- test.conditions: competitive ELISA, Gal-4NL 25 µM, immobilized ASF
quantity.name: IC50 (µM)
Unit µM implied. Number only.

C[C@@H]1O[C@@H](O[C@H]2[C@H](O[C@H]3[C@H](O)[C@@H](O)C(O)O[C@@H]3CO)O[C@H](CO)[C@H](O)[C@@H]2O[C@H]2O[C@H](CO)[C@H](O)[C@H](O)[C@H]2O)[C@@H](O)[C@H](O)[C@@H]1O (some centres unmarked) [blood-group antigen B (6), blood-group antigen B type 6] | 260

Note: attention shifts to another entry.
// Input: CC(=O)N[C@H]1[C@H](O[C@H]2[C@@H](O)[C@@H](CO)O[C@@H](O[C@H]3[C@H](O)[C@@H](O)C(O)O[C@@H]3CO)[C@@H]2O)O[C@H](CO)[C@@H](O[C@@H]2O[C@H](CO)[C@H](O)[C@H](O)[C@H]2O)[C@@H]1O (some centres unmarked) . Output its IC50 only. 400
